- Test system: SK-OV-3 ovarian
- assay_comment: NCI tumour cell line growth inhibition, 48 h
Can you tell me GI50 for the items I'm about to list?

These recorded examples may help you get a feel for the data.
# molecule, GI50
records = [
    ("CC(SC(C)C(=O)N/N=C/c1cccc(Cl)c1)C(=O)N/N=C\\c1cccc(Cl)c1 (stereo not drawn)", "13 µM"),
    ("Cn1cc(C2=C(c3ccc4ccccc4c3)C(=O)NC2=O)c2ccccc21", "> 25 µM"),
    ("COC(=O)/C=C/c1cc(O)c2oc(-c3ccc(O)c(O)c3)c(C(=O)OC)c2c1", "1.13 µM"),
    ("CCOc1nc(-c2ccccc2)cc2c(O)c(-c3nnco3)[nH]c(=O)c12", "10 µM"),
]

Below are some molecules; for each one, tell me its GI50.
1. CC(C)(C)C(=O)OCOP(=O)(OCOC(=O)C(C)(C)C)C1CCCN(O)C1=O (stereo not drawn)
2. COc1ncnc(C2CC2)c1-c1ncc2cnn(Cc3ccc(-c4nc(C(F)(F)F)cn4C(C)C)cc3)c2n1
3. Cn1c(=O)c2c(nc(Nc3cc(=O)[nH]c(=O)[nH]3)n2Cc2ccccc2)n(C)c1=O
4. COc1cc(C(=O)c2cc(C)c3[nH]c4ccc(Cl)cc4c3c2C)cc(OC)c1OC
5. C=C(F)C(=O)N1CCN(c2nc(OC[C@@H]3CCCN3C)nc3c2CCN(c2cccc4cccc(Cl)c24)C3)C[C@@H]1CC#N
6. C=CC1CC12C(=O)C1OC2(C)C2C(=O)c3cc4ccccc4cc3C(=O)C12 (stereo not drawn)
7. COc1ccc(C(=O)c2cc(OC)c(C)c(OC)c2)cc1OC(=O)CCl

1: 0.508 µM; 2: 36.8 µM; 3: > 100 µM; 4: 0.666 µM; 5: 2.17 µM; 6: 48.1 µM; 7: 0.76 µM

Provide GI50 values for the following items, in order.
1. Clc1ccc2c(NCCCNc3nccc(Nc4ccc(Br)cc4)n3)ccnc2c1
2. OCCN1CN(CCO)CN(c2nc(N3CN(CCO)CN(CCO)C3)nc(N3CN(CCO)CN(CCO)C3)n2)C1
3. COc1ccc(C2CC(c3cccc(Nc4ccncc4)c3)=NN2c2cc(Cl)cc(Cl)c2)cc1 (stereo not drawn)
4. C[C@H]1c2cccc(O)c2C(O)=C2C(=O)[C@]3(O)C(O)=C(C(N)=O)C(=O)[C@@H](N(C)C)[C@@H]3[C@@H](O)[C@@H]21
5. O=C(c1ccccc1)c1cc(Cl)ccc1OCCCCN1CCN(CCCCOc2ccc(Cl)cc2C(=O)c2ccccc2)CC1
6. O=c1n(CC2CO2)c(=O)n(CC2CO2)c(=O)n1CC1CO1 (stereo not drawn)
7. CC(O)C(N=Cc1ccccc1[O-])C(=O)[O-].CC(O)C(N=Cc1ccccc1[O-])C(=O)[O-].[Co+2] (stereo not drawn)

1.55 µM
1.39 ng/mL
11.3 µM
3.38 µM
17.1 µM
6.86 µM
70.9 µM
